Reference source: paper PMC12775434

Biological target: GPR139 (Homo sapiens, UniProt Q6DWJ6)
Sequence (Q6DWJ6 1-353): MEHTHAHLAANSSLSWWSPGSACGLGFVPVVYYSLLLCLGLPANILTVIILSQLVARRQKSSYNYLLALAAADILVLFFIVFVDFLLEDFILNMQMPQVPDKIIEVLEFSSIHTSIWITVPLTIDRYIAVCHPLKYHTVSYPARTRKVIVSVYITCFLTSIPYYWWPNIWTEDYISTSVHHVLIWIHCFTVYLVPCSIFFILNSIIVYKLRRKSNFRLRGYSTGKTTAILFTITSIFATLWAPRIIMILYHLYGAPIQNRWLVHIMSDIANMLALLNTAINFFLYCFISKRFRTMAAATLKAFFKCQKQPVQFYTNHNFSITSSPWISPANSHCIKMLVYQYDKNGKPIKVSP
Experiment: Inositol monophosphate (IP1) accumulation assay, GPR139-CHOk1
Format: cell-based
Settings: Supplementary Table 2; mean ± SEM; read-out: pEC50 IP1 (converted)
Give measured EC50 for each item. Keep answers brief.
Answers are plain numbers, in nM.

compound="Cc1nocc1-c1nc(CC(=O)NC(C)c2ccccc2)no1 (stereo not shown)" assayed_target="GPR139 (Homo sapiens, UniProt Q6DWJ6)" quantity=EC50 readout_units=nM observed=501
compound="COc1cc(-c2nc(CC(=O)NC(C)c3ccccc3)no2)ccn1 (stereo not shown)" assayed_target="GPR139 (Homo sapiens, UniProt Q6DWJ6)" quantity=EC50 readout_units=nM observed=1580
compound="COc1ccccc1-c1nc(CC(=O)NC(C)c2ccccc2)no1 (stereo not shown)" assayed_target="GPR139 (Homo sapiens, UniProt Q6DWJ6)" quantity=EC50 readout_units=nM observed=501
compound="Cc1cc(-c2nc(CC(=O)NC(C)c3ccccc3)no2)n(C)n1 (stereo not shown)" assayed_target="GPR139 (Homo sapiens, UniProt Q6DWJ6)" quantity=EC50 readout_units=nM observed=2510
compound="COC(=O)c1cc(NC(=O)NC(C)c2cccc(F)c2F)ccc1C (stereo not shown)" assayed_target="GPR139 (Homo sapiens, UniProt Q6DWJ6)" quantity=EC50 readout_units=nM observed=1580

Give me EC50 for each of these compounds, listed below.
1. Cc1cc(-c2nc(CC(=O)NC(C)c3ccccc3)no2)sc1C (stereo not shown)
2. COc1cc(OC)cc(C(=O)NNC(=O)Nc2cccc3ccccc23)c1 [Lundbeck Cmp 1a, reference compound]

1: 794; 2: 501

* * *

test: Kinetic solubility; type: physicochemical; conditions: aqueous buffer, kinetic from dmso stock; 100 mM potassium phosphate buffer, 37 °C
Give measured solubility kinetic for each item. Keep answers brief.
Answers are plain numbers, in µM.

compound="Cc1nocc1-c1nc(CC(=O)NC(C)c2ccccc2)no1 (centres unmarked) [Compound 1.5]" observed=24

# next compound below
Entry Cc1cscc1-c1nc(CC(=O)N[C@@H](C)c2ccccc2)no1 [1.1(S)] has what solubility kinetic?
13

* * *

biological target: GPR139 (Gi2 activation) (Homo sapiens); construct: expressed in transfected cells; host or cells: HEK293A (transient, Lipofectamine 2000); experiment: BRET G protein activation (dissociation) assay, Gi2, HEK293A; format: cell-based; details: HEK293-A; normalized to JNJ-63533054 (JNJ(S))
Give measured Emax for each item. Keep answers brief.
One number for each entry, in %.

compound="Cc1cscc1-c1nc(CC(=O)N[C@@H](C)c2ccccc2)no1 [1.1(S)]" observed=95
compound="CC(NC(=O)CNC(=O)c1cccc(Cl)c1)c1ccccc1 (stereo not shown) [JNJ-63533054, reference compound]" observed=109
compound="Cc1cscc1-c1nc(CC(=O)N[C@H](C)c2ccccc2)no1 [1.1(R)]" observed=88

# next compound below
Give Emax (GPR139 (Gi2 activation) (Homo sapiens)) of the following compound: C[C@@H](NC(=O)CNC(=O)c1cccc(Cl)c1)c1ccccc1 [JNJ(R), reference compound]
86
